- TEST_PROTOCOL: Pharmacokinetics after IV and oral dose, monkeys
- Type: in vivo
- MEASUREMENT_CONTEXT: cynomolgus monkey, plasma, male, single oral dose 5 mg base/kg
READOUT_KIND: AUC(0-t) (ng·h/mL)
Respond numerically; units are ng·h/mL and should not be typed.

Entry under test: COc1ccc(-c2c(-c3ccc(C#N)c(F)c3)nc(N3CCC(N)CC3)n(C)c2=O)cc1F . Its AUC(0-t) was 3620

###

- TEST_PROTOCOL: Pharmacokinetics after IV and oral dose, monkeys
- Assay type: in vivo
- MEASUREMENT_CONTEXT: cynomolgus monkey, plasma, male, single IV dose 1 mg, mean (SD), read-out: Vss
READOUT_KIND: Vd (L/kg)
The figure you give is taken to be in L/kg; do not add the unit.

Quick note, Vd for COc1ccc(-c2c(-c3ccc(C#N)c(F)c3)nc(N3CCC(N)CC3)n(C)c2=O)cc1F [Compound A] landed at 17.1
